FYI, the data here is from PubChem BioAssay.

Reported growth inhibition values follow for various molecules
experiment: antimalarial activity against Dd2 strain (AID 2302);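 further: 0% = DMSO untreated growth and 100% = chloroquine plus artemisinin killed control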; conditions: P. falciparum Dd2 in RBCs, LDH growth readout, 72 h; at 2 µM; hits give high values
State the answer as a number, implicitly in %.

Solved entries (count: 3):
# Molecule, growth inhibition [%]
data = [
    ("Cc1cccc(CNc2nccc3[nH]c4ccccc4c23)c1", 51),
    ("CC(C)c1ccc(NC(=O)c2cccc(CN3CCCN(Cc4cccc(C#N)c4)CC3)c2)cc1", 15),
    ("COc1ccc(Nc2cc(C)nc(Nc3ccc(NC(C)=O)cc3)n2)cc1", 31),
]

Turning now to a further record.
Quick note, growth inhibition for CS(=O)(=O)N(CC(O)Cn1c2ccc(Cl)cc2c2cc(Cl)ccc21)c1ccccc1 (stereo not given) landed at 98
